Test system: kochia (Bassia scoparia)
protocol.notes: Test C preemergence, visual plant response rating
Type: in vivo
condition.context: Test C, 125 g ai/ha, 0 is no effect, 100 is complete control
// values below are reported Kochia plant response rating (0 to 100 scale)
measure: Kochia plant response rating (0 to 100 scale)

>>> quantitative_readout("Cc1nn(C)c(=O)c(/C(=N/OCCO)c2cccc3cc(Cl)ccc23)c1O [Compound 240]")
0
>>> quantitative_readout("CC(C)O/N=C(/c1c(O)cnn(C)c1=O)c1ccc(F)c2ccccc12 [Compound 302]")
0
>>> quantitative_readout("CCO/N=C(/c1c(O)c(Cl)nn(C)c1=O)c1cc(Br)cc2ccccc12 [Compound 236]")
40
>>> quantitative_readout("CCO/N=C(/c1c(O)cnn(C)c1=O)c1ccc(F)c2ccccc12 [Compound 270]")
0
>>> quantitative_readout("Cc1nn(C)c(=O)c(/C(=N\\OC(C)C)c2cccc3cc(Cl)ccc23)c1O [Compound 241]")
0
